Origin of the recorded values: patent US9340577B2

Examples of sequences with documented IC50 follow.
# TARGET_ENTITY: DRB5*0101 (Homo sapiens, UniProt P01903+Q30154)
# PROTOCOL_TEXT: biochemical
# CONDITION_LABEL: Binding affinity DRB5 *0101
No end group written: not given here.

| SEQUENCE | CENSOR_SYMBOL | IC50 [µM] |
| --- | --- | --- |
| LVQLKCPPLLITSNI [Peptide 89.0021] | > | 20 |
| VDFIDTQLSICEQAE [Peptide 89.0078] | = | 1.52 |
| DIAYKYAQLADVNSN [Peptide 89.0108] | = | 0.15 |
| SNLLSIPETCMVIEP [Peptide 89.0067] | > | 20 |
| KERHVNANKRFHNIM [Peptide 1543.59] | = | 0.502 |
| YKTLFVDVTSTYHWT [Peptide 90.0241] | = | 5.5 |
| GLYYWCDGEKIYFVK [Peptide 90.0226] | > | 20 |
| DNELTDDSDIAYYYA [Peptide 90.0085] | > | 20 |
| WQLIRLENAILFTAR [Peptide 90.0211] | = | 0.445 |
| LYCYEQLSDSSDEDE [Peptide 1543.13] | > | 20 |
| LVQLKCPPLLLTSNT [Peptide 89.0077] | = | 4.49 |
| IHFIQGAVISFVNST [Peptide 89.0037] | > | 20 |
| SLSLGFLFLLFFWLD [Peptide 68.0022] | > | 20 |
| TAIFGVNPTIAEGFK [Peptide 89.0024] | = | 17.9 |
| EIYIIEEDTCTMVTG [Peptide 90.0203] | > | 20 |
| IIHLKGDPNSLKCLR [Peptide 90.0228] | = | 1.33 |
| DSVDSVNCGVISAAA [Peptide 1601.24] | > | 20 |
| IIHLKGDKNSLKCLR [Peptide 90.0218] | = | 9.92 |
| GGDWKQIVMFLRYQG [Peptide 89.0013] | = | 0.014 |
| RFHNIMGRWTGRCSE [Peptide 1543.60] | = | 0.374 |
| DYVLDLQPEATDLHC [Peptide 1543.10] | > | 20 |
| YFKYFKEDAAKYSKT [Peptide 90.0205] | = | 4.66 |
| FIHFIQGAVISFVNS [Peptide 89.0036] | = | 6.02 |
| VMAIFGVNPTVAEGF [Peptide 89.0080] | = | 19.4 |
| SQLLNIPETHMVIEP [Peptide 89.0102] | > | 20 |
| TRPRTLHELCEVLEE [Peptide 1543.42] | > | 20 |

###

# TARGET_ENTITY: DRB4*0101 (Homo sapiens, UniProt P01903+P13762, G164S)
# PROTOCOL_TEXT: biochemical
# Format: binding
Examples of molecules with documented IC50 follow.

| MOLECULE | SCALE_UNIT | CENSOR_SYMBOL | IC50 |
| --- | --- | --- | --- |
| CC[C@H](C)[C@H](NC(=O)[C@@H](NC(=O)[C@@H]1CCCN1C(=O)[C@@H](NC(=O)[C@@H](NC(=O)[C@H](CC(N)=O)NC(=O)CNC(=O)[C@H](CO)NC(=O)[C@H](CS)NC(=O)[C@@H](NC(=O)[C@H](CCCCN)NC(=O)[C@@H](N)CCCNC(=N)N)C(C)C)[C@@H](C)O)[C@@H](C)O)[C@@H](C)CC)C(=O)N[C@@H](Cc1c[nH]cn1)C(=O)N[C@@H](CC(C)C)C(=O)N[C@@H](CCCCN)C(=O)O [Peptide 1601.43] | nM | = | 2100 |
| CC(C)C[C@H](NC(=O)[C@H](CCC(N)=O)NC(=O)[C@H](CCCCN)NC(=O)[C@@H](NC(=O)[C@H](CC(C)C)NC(=O)[C@H](CCC(N)=O)NC(=O)[C@@H](NC(=O)[C@H](C)NC(=O)[C@H](CO)NC(=O)[C@@H](NC(=O)[C@@H](NC(=O)[C@H](CC(=O)O)NC(=O)[C@H](CC(=O)O)NC(=O)[C@@H](N)CO)[C@@H](C)O)C(C)C)[C@@H](C)O)C(C)C)C(=O)N[C@@H](CCC(N)=O)C(=O)O [Peptide 1601.13] | nM | = | 26 |
| CC(C)C[C@H](NC(=O)CNC(=O)[C@H](CC(N)=O)NC(=O)[C@H](Cc1ccc(O)cc1)NC(=O)[C@@H](NC(=O)[C@H](CC(=O)O)NC(=O)[C@@H](N)CC(C)C)C(C)C)C(=O)N[C@@H](CC(C)C)C(=O)N1CCC[C@H]1C(=O)N1CCC[C@H]1C(=O)N[C@@H](Cc1ccc(O)cc1)C(=O)N[C@@H](C)C(=O)N[C@@H](CO)C(=O)N[C@@H](CS)C(=O)N[C@@H](Cc1c[nH]cn1)C(=O)O [Peptide 68.0053] | nM | > | 20000 |
| CC(C)[C@H](NC(=O)[C@H](CCC(=O)O)NC(=O)[C@H](Cc1c[nH]c2ccccc12)NC(=O)[C@@H](NC(=O)CNC(=O)[C@@H](NC(=O)[C@H](CC(N)=O)NC(=O)CNC(=O)[C@H](Cc1ccc(O)cc1)NC(=O)[C@H](CCCCN)NC(=O)[C@@H](N)CCC(=O)O)[C@@H](C)O)[C@@H](C)O)C(=O)N[C@@H](Cc1c[nH]cn1)C(=O)N[C@@H](Cc1ccccc1)C(=O)NCC(=O)N[C@@H](CC(N)=O)C(=O)O [Peptide 1601.11] | nM | > | 20000 |
| CC(C)[C@H](NC(=O)[C@H](CO)NC(=O)[C@@H](NC(=O)[C@@H](N)[C@@H](C)O)C(C)C)C(=O)NCC(=O)N[C@H](C(=O)N[C@@H](C)C(=O)N[C@@H](CCCCN)C(=O)N[C@H](C(=O)N[C@@H](Cc1ccc(O)cc1)C(=O)NCC(=O)N[C@@H](CCC(N)=O)C(=O)N[C@H](C(=O)N[C@@H](CO)C(=O)N[C@@H](C)C(=O)O)[C@@H](C)O)[C@@H](C)O)[C@@H](C)O [Peptide 89.0163] | nM | = | 229 |
| CC(C)C[C@H](NC(=O)CNC(=O)[C@H](CC(N)=O)NC(=O)[C@H](Cc1ccc(O)cc1)NC(=O)[C@@H](NC(=O)[C@H](CC(=O)O)NC(=O)[C@H](CC(C)C)NC(=O)[C@H](C)N)C(C)C)C(=O)N[C@@H](CC(C)C)C(=O)N1CCC[C@H]1C(=O)N1CCC[C@H]1C(=O)N[C@@H](Cc1ccc(O)cc1)C(=O)N[C@@H](C)C(=O)N[C@@H](CO)C(=O)N[C@@H](CS)C(=O)O [Peptide 68.0052] | nM | > | 20000 |
| CC[C@H](C)[C@H](NC(=O)[C@H](C)NC(=O)[C@H](CCCCN)NC(=O)[C@H](Cc1c[nH]cn1)NC(=O)[C@H](C)NC(=O)[C@H](CCCCN)NC(=O)[C@H](CO)NC(=O)[C@H](CCCCN)NC(=O)[C@H](CO)NC(=O)[C@@H](NC(=O)[C@H](CC(N)=O)NC(=O)[C@H](Cc1ccc(O)cc1)NC(=O)[C@H](C)N)[C@@H](C)CC)C(=O)N[C@@H](CCC(=O)O)C(=O)N[C@@H](CC(C)C)C(=O)O [Peptide 89.0159] | nM | > | 20000 |
| CC[C@H](C)[C@H](NC(=O)[C@H](Cc1c[nH]cn1)NC(=O)[C@H](C)NC(=O)[C@H](Cc1ccc(O)cc1)NC(=O)[C@H](CC(C)C)NC(=O)[C@@H](NC(=O)[C@H](C)NC(=O)[C@@H]1CCCN1C(=O)[C@H](CCCCN)NC(=O)[C@@H](NC(=O)[C@H](CC(C)C)NC(=O)[C@@H](NC(=O)[C@H](CCCCN)NC(=O)[C@@H](N)Cc1ccccc1)[C@@H](C)O)[C@@H](C)CC)[C@@H](C)O)C(=O)N[C@@H](CCC(N)=O)C(=O)O [Peptide 89.0082] | nM | = | 20 |
| CC[C@H](C)[C@H](NC(=O)[C@H](Cc1c[nH]c2ccccc12)NC(=O)[C@H](CCC(=O)O)NC(=O)[C@@H]1CCCN1)C(=O)N[C@@H](CCC(=O)O)C(=O)N[C@@H](CCCNC(=N)N)C(=O)N[C@@H](CCC(N)=O)C(=O)N[C@H](C(=O)N[C@H](C(=O)N[C@@H](CC(C)C)C(=O)N[C@@H](CCC(N)=O)C(=O)N[C@@H](Cc1c[nH]cn1)C(=O)N[C@@H](CO)C(=O)N[C@@H](Cc1ccccc1)C(=O)N[C@@H](CC(N)=O)C(=O)O)C(C)C)[C@@H](C)O [Peptide 89.0049] | nM | = | 2 |
